Biological target: UniProtKB Q9UBT2
Test: In vitro inhibitory activity assay against SAE (SUMO-2/3 immunofluorescence in HCT116 cells)
Type: cell-based
Details: 6 h incubation, class symbols, read-out: SUMO IF IC50
pIC50: −log10 of the molar value.
RECORDED_ENDPOINT: pIC50

Here's what some known entries look like.
# COMPOUND, pIC50
records = [
    ("NS(=O)(=O)OC[C@H]1C[C@@H](Nc2ncncc2C(=O)c2cc3c(s2)CCCC32NC3(CC3)Cc3ccc(Cl)cc32)C[C@@H]1O (stereo partly drawn)", "6.70 to 7.30"),
    ("COc1ccc2c(c1)[C@@]1(CCc3sc(C(=O)c4cncnc4N[C@@H]4C[C@H](COS(N)(=O)=O)[C@@H](O)C4)cc31)NCC2", "6.70 to 7.30"),
    ("NS(=O)(=O)OC[C@H]1C[C@@H](Nc2ncncc2C(=O)c2cc3c(s2)CCCC32NCCc3cc(F)c(F)cc32)C[C@@H]1O (stereo partly drawn)", "6.70 to 7.30"),
    ("NS(=O)(=O)OC[C@H]1C[C@@H](Nc2ncncc2C(=O)c2cc3c(s2)CCC32NCCc3cc(Cl)c(Cl)cc32)C[C@@H]1O (stereo partly drawn)", "6.70 to 7.30"),
    ("NS(=O)(=O)OC[C@H]1C[C@@H](Nc2ncncc2C(=O)c2cc3c(s2)CSCC32NCCc3ncc(Cl)cc32)C[C@@H]1O (stereo partly drawn)", "6.70 to 7.30"),
    ("NS(=O)(=O)OC[C@H]1C[C@@H](Nc2ncncc2C(=O)c2cc3c(s2)C=CC32OCCc3ccccc32)C[C@@H]1O (stereo partly drawn)", "6.70 to 7.30"),
    ("CN1Cc2sc(C(=O)c3cncnc3N[C@@H]3C[C@H](COS(N)(=O)=O)[C@@H](O)C3)cc2[C@@]2(C1)OCCc1ccccc12", "< 6.70"),
    ("CCN1Cc2sc(C(=O)c3cncnc3N[C@@H]3C[C@H](COS(N)(=O)=O)[C@@H](O)C3)cc2[C@@]2(C1)OCCc1ccc(F)cc12", "< 6.70"),
    ("CC(C)N1Cc2sc(C(=O)c3cncnc3N[C@@H]3C[C@H](COS(N)(=O)=O)[C@@H](O)C3)cc2C2(C1)NCCc1ccc(Cl)cc12 (stereo partly drawn)", "≥ 7.30"),
    ("NS(=O)(=O)OC[C@H]1C[C@@H](Nc2ncncc2C(=O)c2cc3c(s2)OCC32NCCc3ccc(Cl)cc32)C[C@@H]1O (stereo partly drawn)", "6.70 to 7.30"),
]

[in] Please report the recorded pIC50 for CC1=CC2(NCCc3ccc(Cl)cc32)c2cc(C(=O)c3cncnc3N[C@@H]3C[C@H](COS(N)(=O)=O)[C@@H](O)C3)sc21 (stereo partly drawn) .
[out] 6.70 to 7.30

[in] Please report the recorded pIC50 for NS(=O)(=O)OC[C@H]1C[C@@H](Nc2ncncc2C(=O)c2cc3c(s2)C=C[C@@]32OCCc3ccccc32)C[C@@H]1O .
[out] < 6.70

###

Target: SAE (Homo sapiens (Human), UniProt Q9UBT2)
Sequence (Q9UBT2 whole entry): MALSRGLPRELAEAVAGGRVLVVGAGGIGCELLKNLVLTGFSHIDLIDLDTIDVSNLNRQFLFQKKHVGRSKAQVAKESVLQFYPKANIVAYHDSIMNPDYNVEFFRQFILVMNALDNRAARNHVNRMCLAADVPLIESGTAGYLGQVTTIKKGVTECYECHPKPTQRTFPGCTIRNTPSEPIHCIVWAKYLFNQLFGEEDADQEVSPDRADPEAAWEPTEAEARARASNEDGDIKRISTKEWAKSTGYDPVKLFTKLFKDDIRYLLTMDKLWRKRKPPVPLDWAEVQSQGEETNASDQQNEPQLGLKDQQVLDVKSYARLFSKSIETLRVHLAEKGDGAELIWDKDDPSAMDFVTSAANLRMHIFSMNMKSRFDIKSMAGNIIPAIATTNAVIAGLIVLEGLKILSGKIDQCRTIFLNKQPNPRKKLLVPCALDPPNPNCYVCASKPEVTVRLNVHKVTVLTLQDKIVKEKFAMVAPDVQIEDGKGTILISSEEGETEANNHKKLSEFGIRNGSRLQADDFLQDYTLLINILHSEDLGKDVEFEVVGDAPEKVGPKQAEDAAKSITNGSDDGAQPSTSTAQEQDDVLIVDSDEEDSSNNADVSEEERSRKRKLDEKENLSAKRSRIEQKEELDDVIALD
Sequence (Q9UBE0 whole entry partner): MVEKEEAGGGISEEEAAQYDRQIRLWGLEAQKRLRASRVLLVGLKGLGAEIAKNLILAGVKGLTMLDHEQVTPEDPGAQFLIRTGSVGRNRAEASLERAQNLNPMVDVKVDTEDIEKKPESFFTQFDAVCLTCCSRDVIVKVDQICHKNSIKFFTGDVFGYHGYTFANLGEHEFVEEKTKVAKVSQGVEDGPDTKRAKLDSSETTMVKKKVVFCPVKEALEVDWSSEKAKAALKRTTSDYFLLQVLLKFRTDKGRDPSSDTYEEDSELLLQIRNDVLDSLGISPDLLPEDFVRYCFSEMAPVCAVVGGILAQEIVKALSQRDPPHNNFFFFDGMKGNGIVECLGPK
Experiment: In vitro inhibitory activity assay against SAE (SUMO-2/3 immunofluorescence in HCT116 cells)
Assay type: cell-based
Conditions: 6 h incubation, class symbols, read-out: SUMO IF IC50
pIC50: −log10 of the molar value.
RECORDED_ENDPOINT: pIC50

# COMPOUND, STUDY_TARGET, pIC50
data = [
    ("NS(=O)(=O)OC[C@H]1C[C@@H](Nc2ncncc2C(=O)c2cc3c(s2)C=C[C@]32NCCc3ccc(F)cc32)C[C@@H]1O", "SAE (Homo sapiens (Human), UniProt Q9UBT2)", "≥ 7.30"),
    ("CN1Cc2sc(C(=O)c3cncnc3N[C@@H]3C[C@H](COS(N)(=O)=O)[C@@H](O)C3)cc2C2(C1)OCCc1ccc(Cl)cc12 (stereo partly drawn)", "SAE (Homo sapiens (Human), UniProt Q9UBT2)", "≥ 7.30"),
]

Let us examine a further case.
[in] GET /values?readout=pIC50&system=SAE (Homo sapiens (Human), UniProt Q9UBT2)&item= NS(=O)(=O)OC[C@H]1C[C@@H](Nc2ncncc2C(=O)c2cc3c(s2)OCC32NCCc3ccccc32)C[C@@H]1O (stereo partly drawn)
[out] < 6.70

###

Below is a list of entries, each paired with its recorded Vd value.
Test: In vivo pharmacokinetic experiment, intravenous administration
Conditions: mouse, 2 mg/kg, CD-1 female mice, 2 mpk, plasma, read-out: Vdss
Note: a bare number is incomplete; add the unit.

Here's what some known entries look like.
# MOLECULE, Vd
records = [
    ("NS(=O)(=O)OC[C@H]1C[C@@H](Nc2ncncc2C(=O)c2cc3c(s2)CC[C@]32NCCc3ccc(Cl)cc32)C[C@@H]1O", "3.43 L/kg"),
    ("NS(=O)(=O)OC[C@H]1C[C@@H](Nc2ncncc2C(=O)c2cc3c(s2)CCC[C@]32NCCc3ccc(F)cc32)C[C@@H]1O", "3.91 L/kg"),
    ("NS(=O)(=O)OC[C@H]1C[C@@H](Nc2ncncc2C(=O)c2cc3c(s2)CCC[C@]32NCCc3ccc(Cl)cc32)C[C@@H]1O", "3.5 L/kg"),
]

Let us examine a further case.
[in] Please report the recorded Vd for NS(=O)(=O)OC[C@H]1C[C@@H](Nc2ncncc2C(=O)c2cc3c(s2)COC[C@]32NCCc3ccc(Cl)cc32)C[C@@H]1O .
[out] 3.03 L/kg

###

Molecular target: UniProt:Q9UBT2
Experiment: In vitro inhibitory activity assay against SAE (SUMO-2/3 immunofluorescence in HCT116 cells)
Format: cell-based
Conditions: 6 h incubation, numeric values, read-out: SUMO IF IC50
Description: HCT116 cells were seeded into a 96-well black transparent bottom plate at about 20000/well with 90 μL per well. The cells were incubated at 37° C. overnight for 24 h. The test compounds were 10-fold diluted to give a final concentration, and 10 μL of the diluted compounds was added to each well of the cell culture plate. The mixture was incubated at 37° C. for 6 h. […] The fluorescence signal of the sample was detected and compared to the DMSO group, and the inhibition rate and IC50 were calculated.
Checkbox rule: IC50 lower than 50 nM = met; IC50 not lower than 50 nM = not met.

Example results:
# COMPOUND, STUDY_TARGET, CLASS_NAME
measured = [
    ("NS(=O)(=O)OC[C@H]1C[C@@H](Nc2ncncc2C(=O)c2cc3c(s2)COC[C@]32NCCc3ccc(Cl)cc32)C[C@@H]1O", "UniProt:Q9UBT2", "not met"),
    ("NS(=O)(=O)OC[C@H]1C[C@@H](Nc2ncncc2C(=O)c2cc3c(s2)CCC[C@]32NCCc3ccc(Cl)cc32)C[C@@H]1O", "UniProt:Q9UBT2", "met"),
    ("NS(=O)(=O)OC[C@H]1C[C@@H](Nc2ncncc2C(=O)c2cc3c(s2)CC[C@@]32NCCc3ccccc32)C[C@@H]1O", "UniProt:Q9UBT2", "not met"),
]

[in] Hello, I'm reviewing records and need to know if IC50 of NS(=O)(=O)OC[C@H]1C[C@@H](Nc2ncncc2C(=O)c2cc3c(s2)CN(CC(F)(F)F)C[C@]32NCCc3ccc(Cl)cc32)C[C@@H]1O is below 50 nM. Could you check?
[out] met

[in] Hello, I'm reviewing records and need to know if IC50 of NS(=O)(=O)OC[C@H]1C[C@@H](Nc2ncncc2C(=O)c2cc3c(s2)C=C[C@@]32NCCc3ccc(Cl)cc32)C[C@@H]1O is below 50 nM. Could you check?
[out] not met

[in] Hello, I'm reviewing records and need to know if IC50 of Cc1sc(C(=O)c2cncnc2N[C@@H]2C[C@H](COS(N)(=O)=O)[C@@H](O)C2)cc1[C@@H]1NCCc2ccc(Cl)cc21 [TAK-981, reference compound] is below 50 nM. Could you check?
[out] not met

###

Molecular target: UniProtKB Q9UBT2
Experiment: In vitro inhibitory activity assay against SAE (SUMO-2/3 immunofluorescence in HCT116 cells)
Type: cell-based
Details: 6 h incubation, class symbols, read-out: SUMO IF IC50
pIC50: −log10 of the molar value.
Below is a list of entries, each paired with its recorded pIC50 value.

Here's what some known entries look like.
# MOLECULE, pIC50
records = [
    ("NS(=O)(=O)OC[C@H]1C[C@@H](Nc2ncncc2C(=O)c2cc3c(s2)CCC[C@]32NCC3(CC3)c3ccc(Cl)cc32)C[C@@H]1O [Compound 153]", "≥ 7.30"),
    ("Cc1ccc2c(c1)[C@@]1(CCc3sc(C(=O)c4cncnc4N[C@@H]4C[C@H](COS(N)(=O)=O)[C@@H](O)C4)cc31)NCC2 [Compound 223]", "6.70 to 7.30"),
    ("COc1cc2c(cc1Cl)C1(CCCc3sc(C(=O)c4cncnc4N[C@@H]4C[C@H](COS(N)(=O)=O)[C@@H](O)C4)cc31)NCC2 (stereo partly shown) [Compound 31]", "6.70 to 7.30"),
]

Let us examine a further case.
[in] Please report the recorded pIC50 for NS(=O)(=O)OC[C@H]1C[C@@H](Nc2ncncc2C(=O)c2cc3c(s2)CC[C@]32OCCc3ccc(F)cc32)C[C@@H]1O [Compound 285] .
[out] 6.70 to 7.30
